Catalogue of % Inhibition readings, one per entry.
tested on: human SMAD7 mRNA; assay: Antisense inhibition of human SMAD7 mRNA expression in Hep3B cells by 3-10-3 cEt gapmers, 10,000 nM, electroporation (Example 2); format: cell-based; details: Hep3B cells, electroporation with 10,000 nM antisense oligonucleotide, approximately 24 hours, SMAD7 mRNA by RT-PCR (RTS5062), relative to untreated control cells
Strand notation (5' to 3'): a small letter for the sugar, then the base; units joined by * are phosphorothioate-linked, units joined directly phosphodiester-linked; [ ] holds rarer units or linkages, { } end groups; capitals alone tell only the bases. k = constrained ethyl (cEt); [5mC] = 5-methylcytosine; d = 2'-deoxy (DNA)
Output spec: scalar in %, unitless text.

% Inhibition for 830155 (antisense kT*kG*kT*dG*d[5mC]*d[5mC]*dT*d[5mC]*dA*dG*d[5mC]*dA*dG*kT*kT*kA) [compound 830155] is 38

% Inhibition for 799928 (antisense k[5mC]*kT*k[5mC]*d[5mC]*d[5mC]*dA*dA*dG*d[5mC]*d[5mC]*dT*dA*d[5mC]*kA*kT*kA) [compound 799928] is 7

% Inhibition for 798847 (kT*kT*kG*d[5mC]*dT*d[5mC]*d[5mC]*dG*d[5mC]*dA*d[5mC]*d[5mC]*dT*kT*k[5mC]*kT; antisense) [compound 798847] is 24

* * *

tested on: human SMAD7 mRNA; assay: Antisense inhibition of human SMAD7 mRNA expression in Hep3B cells by 3-10-3 cEt gapmers, 10,000 nM, electroporation (Example 2); assay type: cell-based; conditions: SMAD7 mRNA, Hep3B cells, electroporation with 10,000 nM antisense oligonucleotide, approximately 24 hours, primer probe set RTS5062, relative to untreated control cells
Strand notation (5' to 3'): a small letter for the sugar, then the base; units joined by * are phosphorothioate-linked, units joined directly phosphodiester-linked; [ ] holds rarer units or linkages, { } end groups; capitals alone tell only the bases. k = constrained ethyl (cEt); [5mC] = 5-methylcytosine; d = 2'-deoxy (DNA)
Catalogue of % Inhibition readings, one per entry.
Output spec: scalar in %, unitless text.

Solved entries (count: 2):
1. 829998 (kT*kG*kT*dT*dT*dG*dT*d[5mC]*dT*dT*dA*dG*d[5mC]*kT*kG*kT; antisense) [compound 829998] | 34
2. 829879 (antisense kT*kG*kG*dA*dG*dT*d[5mC]*d[5mC]*dG*dG*dG*dT*dT*kG*kT*k[5mC]) [compound 829879] | 29

% Inhibition for 830010 (antisense kG*kT*k[5mC]*dT*d[5mC]*dA*dA*dA*dT*dG*dG*dG*d[5mC]*kT*kT*k[5mC]) [compound 830010] is 68

* * *

Catalogue of % Inhibition readings, one per entry.
tested on: human SMAD7 mRNA; experiment: Antisense inhibition of human SMAD7 mRNA expression in Hep3B cells by 5-10-5 MOE gapmers, single concentration, electroporation, RT-PCR (Example 1, Study 1 and 2); format: cell-based; conditions: Study 2, electroporation with 15,000 nM antisense oligonucleotide, 5-10-5 MOE gapmers targeting SEQ ID NO: 1 and 2
Strand notation (5' to 3'): a small letter for the sugar, then the base; units joined by * are phosphorothioate-linked, units joined directly phosphodiester-linked; [ ] holds rarer units or linkages, { } end groups; capitals alone tell only the bases. e = 2'-O-(2-methoxyethyl) (MOE); [5mC] = 5-methylcytosine; d = 2'-deoxy (DNA)

% Inhibition for 771394 (antisense e[5mC]*eG*e[5mC]*eT*e[5mC]*d[5mC]*dG*dG*d[5mC]*dT*dG*d[5mC]*d[5mC]*d[5mC]*d[5mC]*eA*e[5mC]*e[5mC]*e[5mC]*e[5mC]) [compound 771394] is 10%

% Inhibition for 771727 (antisense eA*eA*e[5mC]*eA*eT*dG*dG*d[5mC]*d[5mC]*dT*dT*dT*d[5mC]*dT*dT*eT*eT*e[5mC]*eT*eA) [compound 771727] is 0%

% Inhibition for 771732 (antisense eG*eT*e[5mC]*eA*eT*dG*dT*dG*dA*dA*d[5mC]*dA*d[5mC]*dT*d[5mC]*eT*eT*eT*e[5mC]*eA) [compound 771732] is 36%

* * *

system: human SMAD7 mRNA; assay: Antisense inhibition of human SMAD7 mRNA expression in Hep3B cells by 5-10-5 MOE gapmers, single concentration, electroporation, RT-PCR (Example 1, Study 1 and 2); assay type: cell-based; conditions: Study 2, electroporation with 15,000 nM antisense oligonucleotide, 5-10-5 MOE gapmers targeting SEQ ID NO: 1 and 2
Strand notation (5' to 3'): a small letter for the sugar, then the base; units joined by * are phosphorothioate-linked, units joined directly phosphodiester-linked; [ ] holds rarer units or linkages, { } end groups; capitals alone tell only the bases. e = 2'-O-(2-methoxyethyl) (MOE); [5mC] = 5-methylcytosine; d = 2'-deoxy (DNA)
Catalogue of % Inhibition readings, one per entry.
Output spec: scalar in %, unitless text.

1) 771723 (antisense e[5mC]*e[5mC]*eA*eA*eG*dG*dT*dT*dA*d[5mC]*dA*dT*dA*d[5mC]*dA*eA*e[5mC]*e[5mC]*eT*eG) [compound 771723] | 44
2) 771398 (antisense eG*eG*e[5mC]*eA*eG*dG*dA*dG*d[5mC]*dG*dG*d[5mC]*dG*dG*d[5mC]*eG*eG*e[5mC]*e[5mC]*e[5mC]) [compound 771398] | 48
3) 771740 (antisense eG*e[5mC]*e[5mC]*eA*e[5mC]*dT*d[5mC]*d[5mC]*dT*dG*dA*d[5mC]*dT*d[5mC]*dA*e[5mC]*eG*e[5mC]*eA*eA) [compound 771740] | 20
4) 771748 (antisense eA*e[5mC]*e[5mC]*e[5mC]*e[5mC]*d[5mC]*dA*d[5mC]*dA*dT*dT*dA*dA*dA*d[5mC]*eA*eT*eA*eA*eT) [compound 771748] | 0

Below: the item to evaluate.
% Inhibition for 771390 (antisense e[5mC]*eG*eG*e[5mC]*eT*dG*d[5mC]*d[5mC]*d[5mC]*d[5mC]*dA*d[5mC]*d[5mC]*d[5mC]*d[5mC]*eG*e[5mC]*eG*e[5mC]*eG) [compound 771390] is 66

* * *

test system: human SMAD7 mRNA; assay: Antisense inhibition of human SMAD7 mRNA expression in Hep3B cells by 3-10-3 cEt gapmers, 10,000 nM, electroporation (Example 2); format: cell-based; details: Hep3B cells, electroporation with 10,000 nM antisense oligonucleotide, approximately 24 hours, primer probe set RTS5062, relative to untreated control cells
Strand notation (5' to 3'): a small letter for the sugar, then the base; units joined by * are phosphorothioate-linked, units joined directly phosphodiester-linked; [ ] holds rarer units or linkages, { } end groups; capitals alone tell only the bases. k = constrained ethyl (cEt); [5mC] = 5-methylcytosine; d = 2'-deoxy (DNA)
Parameter Measured: % inhibition of SMAD7 mRNA expression (%)
Output spec: scalar in %, unitless text.

Solved entries (count: 2):
1) 799242 (k[5mC]*kG*kT*dG*dA*dT*dT*d[5mC]*dT*d[5mC]*d[5mC]*dG*dT*kA*kT*kT; antisense) [compound 799242] | 0
2) 799200 (antisense kT*k[5mC]*kA*dG*dG*dA*dG*dT*d[5mC]*d[5mC]*dT*dT*dT*k[5mC]*kT*k[5mC]) [compound 799200] | 69

% inhibition of SMAD7 mRNA expression for 790655 (k[5mC]*kG*kT*dG*dT*dT*dA*dA*dA*dG*d[5mC]*dT*dG*kA*kG*k[5mC]; antisense) [compound 790655] is 42

% inhibition of SMAD7 mRNA expression for 799386 (antisense kA*kG*kG*dA*dG*d[5mC]*dT*dA*dA*dA*dT*dG*dG*kT*kG*k[5mC]) [compound 799386] is 12

% inhibition of SMAD7 mRNA expression for 799230 (kG*kG*kT*dG*dA*dT*dA*dA*d[5mC]*dA*d[5mC]*d[5mC]*d[5mC]*kA*kT*kA; antisense) [compound 799230] is 14

% inhibition of SMAD7 mRNA expression for 798689 (antisense kG*k[5mC]*k[5mC]*dG*dG*dA*d[5mC]*dG*dA*dG*d[5mC]*dG*d[5mC]*kA*kG*kA) [compound 798689] is 33

* * *

Catalogue of % inhibition of SMAD7 mRNA expression readings, one per entry.
test system: human SMAD7 mRNA; assay: Dose-dependent inhibition of human SMAD7 mRNA expression in Hep3B cells (Example 3, Study 1 and 2); format: cell-based; settings: 312.5 nM, electroporation, approximately 16 hours, Study 1, relative to untreated control cells
Strand notation (5' to 3'): a small letter for the sugar, then the base; units joined by * are phosphorothioate-linked, units joined directly phosphodiester-linked; [ ] holds rarer units or linkages, { } end groups; capitals alone tell only the bases. e = 2'-O-(2-methoxyethyl) (MOE); [5mC] = 5-methylcytosine; d = 2'-deoxy (DNA)
Output spec: scalar in %, unitless text.

Solved entries (count: 4):
1. 771574 (antisense e[5mC]*eG*e[5mC]*eT*eT*dG*dG*dG*dA*d[5mC]*dT*dG*d[5mC]*dA*dA*eA*e[5mC]*e[5mC]*eT*e[5mC]) [compound 771574] | 0
2. 771663 (antisense eT*eT*e[5mC]*e[5mC]*eA*dA*dT*dG*dA*dG*dA*dA*dT*dG*d[5mC]*eT*eT*e[5mC]*eT*e[5mC]) [compound 771663] | 10
3. 771634 (antisense eT*eG*eA*e[5mC]*eG*dG*dA*d[5mC]*d[5mC]*dA*dA*dA*dT*d[5mC]*d[5mC]*eT*eT*e[5mC]*eT*eT) [compound 771634] | 0
4. 771581 (antisense eG*eG*eG*eA*e[5mC]*d[5mC]*d[5mC]*d[5mC]*dA*dG*d[5mC]*d[5mC]*dG*d[5mC]*d[5mC]*eA*eG*e[5mC]*eT*eT) [compound 771581] | 0

Below: the item to evaluate.
% inhibition of SMAD7 mRNA expression for 771641 (antisense eA*eG*eT*eT*eA*dG*dG*dT*dG*dT*d[5mC]*dA*dG*d[5mC]*d[5mC]*eT*eA*eG*eG*eA) [compound 771641] is 3

Hey, just so you know, these numbers are from patent US10517889B2.
